# Tested on: PPARg DBDmut IVT, anti-PPARg (DBD mutation: PPARg1 K132A/R137A, NR concentration 270 nM)
# TEST PROTOCOL: PBM binding z-score (relative to random genomic background probes); higher = stronger binding; sequences stand for … in GC…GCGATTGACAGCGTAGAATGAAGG
ASSAY METRIC: PBM binding z-score

POLYMER SEQUENCE	PBM binding z-score
GCTTGTAGCTCAAGGTTAAGAAAGACTAAGCTAA	-0.739
ACTAGTTGGTCCGCTGAGGTCACACACAATTCGG	-0.126
TCATATAGGTAAAAGGTGAATGTCGGTGTGGTAA	1.7
GTACCAAGATGAATAGGTCGTTGATGAGTAGGCG	0.255
TCTTGTAGATCAAGCCGGTTAAGAAAGCCTGAGT	-0.013
TTACCAAGGTGAAAGGTCGTCGATGCACGCCTTG	0.68
TCTTGTAGCTCAAAGGTTAAGAAAGCCGAAGCCT	-0.321
ACTCGGAGGACAAAGGACAGAGCTACGCCAGTGA	-1.22

Batch lookup, PBM binding z-score per entry.
1. CGAACTGGGTCAGAACAGGACAGTGAAGGATGAT
2. CCTACTGGGCCATTCATAGGTCATTGATCATATG
3. TGTCAAAGTTCAAAGGCAACGTAAGTATCCACAC
4. CATACTGGGCCAAAAAGGTCATTGATGCCGATAA
5. CATACAGGGTCAGCTAGGCCAGAGAAGGGACGGC
6. TCTAGTTGATCACGGAGGTCACACACGACGGGTA

1: 2.05; 2: -0.204; 3: 1.83; 4: 0.232; 5: -0.117; 6: 1.1

====

# System: FXR:RXRa (NR concentration 270 nM, RXRa partner concentration 90 nM)
# TEST PROTOCOL: PBM binding z-score (relative to random genomic background probes); higher = stronger binding; sequences stand for … in GC…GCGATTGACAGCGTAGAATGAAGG
ASSAY METRIC: PBM binding z-score

// below: answered sequences
POLYMER SEQUENCE	PBM binding z-score
ATACCAAGTTGATCGTGAGGTCGTTGATACTAAC	1.48
GCTAGTTGGTCAGTAAAAGGTCCCACACCGGTCG	-0.338
ATCTCTAGGTAACAAGTTCAGTGTAAGAGAGGAC	0.924
TTACCAAGGCGAGCTGAGGTCGTTGATCCAACTC	0.487
CGTCCAAGTTCAGAGAGGTCAGTGAATGCCGAGT	3.32
ACAGACAGGTGATGAAGGGAACTCAGGCTATCAT	-0.0225
TGAATGAGGTTATAAGCTCAGGGAACGTTGCAAA	1.24
ATCTCTAGGTAAGGCTCAGTTCAGTGAAGAACGC	0.198

Below are some sequences; for each one, tell me its PBM binding z-score.
1. GCTAGGAGGCCATTTGGGTCACTCAATGACGGGC
2. CCTGACAGGTGAAAGGTAACTCAGTCTGGTACGC
3. ACTTACGGGTCAACAAGGTTATAGCACGCGTATA
4. TTTCGGAGGACACGAAAGGTCAGAGCTCGACATC
5. ACTAGTTGGTCAGCTGAGGTCACATACAATTCGG
6. TCTTGTAGATTAACAGGAGGTTAAGAAAGATCGA
7. ATCTCTAGGTATCAAGTTCAGTGAAAGAGAGGAC
8. TCTTGTAGATCAAGCAGGCTAAGAAAGCCTGAGT

1: 0.677; 2: 0.803; 3: 6.88; 4: 3.67; 5: 2.13; 6: 0.498; 7: 0.749; 8: -0.142

Need PBM binding z-score for each of these sequences.
1. CCGACTGGGGCAGAGAGGTTACCATACCATCCGG
2. TCTCGGAGGACACGAAAGGTCAGAGATCGACATC
3. AGTACAGGGTCATCGTAGGCCAGAGTACGCACAG

-0.137
3.24
7.3

// each sequence listed below needs its PBM binding z-score
1. AGAATGAGGTTATATGTAGATCAGGGAAGAAAGT
2. TGTCAAAGTTCGAAGGTAACGTAAGTATCCACAC
3. CGAACTAGGTCATGGACAGGACAGTGAATAGTAA
4. ATCTCTACGTAAGACTCAGTTCAGTGAAGAACGC
5. TCATATAGGTAAACGCTAGGTGAAAGTCCGATCT
6. TATACAGGGTCAATGGCCAGAGTACGAATGTCGA
7. ATATGTTGGTTATCGGGTCATTCAGTTTGCGCAT
8. AGAATGAGGTAATACGTAGATCAGGGAAGAAAGT

1: 2.11; 2: 1.54; 3: 3.85; 4: 0.165; 5: 1.11; 6: 5.92; 7: 2.39; 8: 0.302

Taken from the supplement of paper PMC6555819.
